- assayed-system: T1, Human CD137 ECD (human)
- T1 construct: entry includes C-terminal His-tag and biotin acceptor peptide; also called human CD137 extracellular domain; 4-1BB
- T1 sequence (chain, as listed by the source limits assumed): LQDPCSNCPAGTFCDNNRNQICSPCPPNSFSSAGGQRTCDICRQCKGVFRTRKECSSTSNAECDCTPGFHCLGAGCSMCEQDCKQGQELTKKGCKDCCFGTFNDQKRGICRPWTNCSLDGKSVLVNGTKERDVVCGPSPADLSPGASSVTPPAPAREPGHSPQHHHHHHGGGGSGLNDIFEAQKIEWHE
- assay-text: Biacore SPR, vs parent H183/L072
reported-property: fold change of affinity (fold)

• H183/L072 VL V27cG (antibody, name in Kabat numbering, V domains shown, Dual-Ig) VH: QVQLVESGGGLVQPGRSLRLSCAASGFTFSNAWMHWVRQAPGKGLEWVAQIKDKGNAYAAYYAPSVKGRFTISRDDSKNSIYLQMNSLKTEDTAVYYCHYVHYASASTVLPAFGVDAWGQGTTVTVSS VL: DIVMTQSPLSLPVTPGEPASISCQASQELGHMNRNTYLHWYQQKPGQAPRLLIYKVSNRFPGVPDRFSGSGSGTDFTLKISRVEAEDVGVYYCAQGTSVPFTFGQGTKLEIK = 0.4
• H183/L072 VL Q90I (antibody, name in Kabat numbering, V domains shown, Dual-Ig) VH: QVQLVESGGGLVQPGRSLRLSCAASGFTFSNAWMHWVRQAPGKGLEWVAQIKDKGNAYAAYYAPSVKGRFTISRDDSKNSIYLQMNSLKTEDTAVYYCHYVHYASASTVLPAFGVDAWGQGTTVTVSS VL: DIVMTQSPLSLPVTPGEPASISCQASQELVHMNRNTYLHWYQQKPGQAPRLLIYKVSNRFPGVPDRFSGSGSGTDFTLKISRVEAEDVGVYYCAIGTSVPFTFGQGTKLEIK = 0
• H183/L072 VL Q27N (antibody, name in Kabat numbering, V domains shown, Dual-Ig) VH: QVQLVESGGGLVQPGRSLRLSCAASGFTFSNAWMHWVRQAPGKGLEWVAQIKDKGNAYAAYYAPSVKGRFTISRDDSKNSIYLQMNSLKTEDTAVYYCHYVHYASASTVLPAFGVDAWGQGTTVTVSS VL: DIVMTQSPLSLPVTPGEPASISCQASNELVHMNRNTYLHWYQQKPGQAPRLLIYKVSNRFPGVPDRFSGSGSGTDFTLKISRVEAEDVGVYYCAQGTSVPFTFGQGTKLEIK = 0.8
